B1: Ankyrin-2, residues 3571 to 3650; numbered along this chain, Q01484 (parent)
chain: ERLAYIADHLGFSWTELARELDFTEEQIHQIRIENPNSLQDQSHALLKYWLERDGKHATDTNLVECLTKINRMDIVHLME

variants of: B1; test: abundance fitness (aPCA) (normalised: wild type 0, dead -1); higher = more abundant; growth selection in yeast, the domain comes from the species named; conditions: Homo sapiens
// class assignment uses abundance fitness with these ranges: bottom (below -0.1), middle (-0.1 to below -0.03), top (-0.03 or more)

Dear colleague, I would appreciate it if you could identify the bin for S38E and reply at your convenience.
middle

Dear colleague, I would appreciate it if you could identify the bin for E20P and reply at your convenience.
bottom

Dear colleague, I would appreciate it if you could identify the bin for D41F and reply at your convenience.
bottom

Dear colleague, I would appreciate it if you could identify the bin for R19L and reply at your convenience.
top

Dear colleague, I would appreciate it if you could identify the bin for H9G and reply at your convenience.
top

Dear colleague, I would appreciate it if you could identify the bin for A58S and reply at your convenience.
bottom

Dear colleague, I would appreciate it if you could identify the bin for W50V and reply at your convenience.
top

Dear colleague, I would appreciate it if you could identify the bin for R19E and reply at your convenience.
top

Dear colleague, I would appreciate it if you could identify the bin for A7M and reply at your convenience.
middle

Dear colleague, I would appreciate it if you could identify the bin for S13Q and reply at your convenience.
top

Dear colleague, I would appreciate it if you could identify the bin for S38M and reply at your convenience.
middle

Dear colleague, I would appreciate it if you could identify the bin for R53D and reply at your convenience.
bottom

Dear colleague, I would appreciate it if you could identify the bin for L17M and reply at your convenience.
bottom

Dear colleague, I would appreciate it if you could identify the bin for G55E and reply at your convenience.
middle

Dear colleague, I would appreciate it if you could identify the bin for E20D and reply at your convenience.
top

Dear colleague, I would appreciate it if you could identify the bin for E52I and reply at your convenience.
middle

Dear colleague, I would appreciate it if you could identify the bin for W50C and reply at your convenience.
middle

Dear colleague, I would appreciate it if you could identify the bin for F12H and reply at your convenience.
bottom

Dear colleague, I would appreciate it if you could identify the bin for T15K and reply at your convenience.
top

Dear colleague, I would appreciate it if you could identify the bin for K56A and reply at your convenience.
top

Dear colleague, I would appreciate it if you could identify the bin for Q27L and reply at your convenience.
middle

Dear colleague, I would appreciate it if you could identify the bin for I31N and reply at your convenience.
bottom

Dear colleague, I would appreciate it if you could identify the bin for D22A and reply at your convenience.
middle

Dear colleague, I would appreciate it if you could identify the bin for H57E and reply at your convenience.
top

Dear colleague, I would appreciate it if you could identify the bin for E16R and reply at your convenience.
top

Dear colleague, I would appreciate it if you could identify the bin for T24G and reply at your convenience.
top

Dear colleague, I would appreciate it if you could identify the bin for T24I and reply at your convenience.
bottom

Dear colleague, I would appreciate it if you could identify the bin for H44P and reply at your convenience.
bottom

Dear colleague, I would appreciate it if you could identify the bin for W14Y and reply at your convenience.
bottom

Dear colleague, I would appreciate it if you could identify the bin for D54G and reply at your convenience.
top

Dear colleague, I would appreciate it if you could identify the bin for H29S and reply at your convenience.
middle

Dear colleague, I would appreciate it if you could identify the bin for P36Y and reply at your convenience.
bottom

Dear colleague, I would appreciate it if you could identify the bin for H44R and reply at your convenience.
bottom

Dear colleague, I would appreciate it if you could identify the bin for W50D and reply at your convenience.
bottom

Dear colleague, I would appreciate it if you could identify the bin for E34V and reply at your convenience.
top

Dear colleague, I would appreciate it if you could identify the bin for I33V and reply at your convenience.
middle

Dear colleague, I would appreciate it if you could identify the bin for Y49F and reply at your convenience.
top

Dear colleague, I would appreciate it if you could identify the bin for L17E and reply at your convenience.
bottom

Dear colleague, I would appreciate it if you could identify the bin for Y49G and reply at your convenience.
top

Dear colleague, I would appreciate it if you could identify the bin for Q40R and reply at your convenience.
middle

Dear colleague, I would appreciate it if you could identify the bin for E20G and reply at your convenience.
middle

Dear colleague, I would appreciate it if you could identify the bin for S13Y and reply at your convenience.
bottom

Dear colleague, I would appreciate it if you could identify the bin for D22I and reply at your convenience.
bottom

Dear colleague, I would appreciate it if you could identify the bin for P36Q and reply at your convenience.
bottom

Dear colleague, I would appreciate it if you could identify the bin for E25I and reply at your convenience.
top
